Where these numbers come from: patent US11472838B2

# STUDY_TARGET: TG2 (Homo sapiens (Human))
# Sequence (P21980 whole entry): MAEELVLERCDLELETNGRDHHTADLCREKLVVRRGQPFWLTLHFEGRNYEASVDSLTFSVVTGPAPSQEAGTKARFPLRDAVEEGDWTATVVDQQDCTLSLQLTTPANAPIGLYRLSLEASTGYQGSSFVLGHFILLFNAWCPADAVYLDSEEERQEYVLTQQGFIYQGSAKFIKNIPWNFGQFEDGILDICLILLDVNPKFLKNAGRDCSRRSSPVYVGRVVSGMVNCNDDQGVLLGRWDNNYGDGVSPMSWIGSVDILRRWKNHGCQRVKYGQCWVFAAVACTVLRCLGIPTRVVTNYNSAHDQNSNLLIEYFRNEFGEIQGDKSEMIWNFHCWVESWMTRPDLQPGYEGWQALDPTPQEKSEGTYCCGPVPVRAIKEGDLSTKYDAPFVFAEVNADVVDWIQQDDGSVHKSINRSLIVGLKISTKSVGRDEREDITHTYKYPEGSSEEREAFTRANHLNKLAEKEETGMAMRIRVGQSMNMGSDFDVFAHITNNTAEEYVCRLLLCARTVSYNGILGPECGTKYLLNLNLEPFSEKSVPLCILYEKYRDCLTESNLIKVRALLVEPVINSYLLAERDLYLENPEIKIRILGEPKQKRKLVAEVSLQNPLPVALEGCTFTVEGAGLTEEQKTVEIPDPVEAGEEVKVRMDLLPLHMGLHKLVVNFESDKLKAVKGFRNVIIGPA
# PROCEDURE_TEXT: Inhibitory activity against TG2 (isopeptidase assay), Tables 3 and 4
# Format: biochemical
# RECORDED_CONDITIONS: TG2 versus FXIII, isopeptidase assay, Table 3
*1 amine or outer side, *2 acyl side, *3 side chain or, on linkers, in order; H or OH if unused. Where a SMILES comes first, the peptide text is derived from it. [ ]: non-standard residue; d: D form. The star is where a group is joined. Pro(3R,4S-CMe2) = CC1(C)[C@@H]2[C@@H](C(=O)O)NC[C@@H]21; Benzoyl(2-COOH-4,5-Cl2) = O=C(O)c1cc(Cl)c(Cl)cc1C(=O)*; Pro(3S,4R-(CH2)3) = O=C(O)[C@H]1NC[C@@H]2CCC[C@@H]21; Isonicotinoyl(3-COOH) = O=C(O)c1cnccc1C(=O)*; X1 = COC(=O)/C=C/CC[C@H](N[*:1])C(=O)[*:2]; X3 = O=C(c1cnc(O)c([N+](=O)[O-])c1)*; Pro(4-oxo) = O=C1CN[C@H](C(=O)O)C1; Chg = N[C@H](C(=O)O)C1CCCCC1; Tle = CC(C)(C)[C@H](N)C(=O)O
In this section we review reported Selectivity values for a set of compounds.
// no unit string in output, number only

Here are 2 compounds together with their reported answers.
>>> recorded_measurement("COC(=O)/C=C/CC[C@H](NC(=O)c1cc(Cl)c(Cl)cc1C(=O)O)C(=O)N[C@H](C(=O)N1C[C@H]2[C@@H]([C@H]1C(=O)N[C@H](C(=O)N[C@H](C(N)=O)C1CCCCC1)C1CCCCC1)C2(C)C)C(C)(C)C [Compound 29] ({Benzoyl(2-COOH-4,5-Cl2)}-[X1][Tle][Pro(3R,4S-CMe2)][Chg][Chg]-NH2)")
1.3
>>> recorded_measurement("COC(=O)/C=C/CC[C@H](NC(=O)c1cnc(O)c([N+](=O)[O-])c1)C(=O)N[C@H](C(=O)N1C[C@@H]2CCC[C@@H]2[C@H]1C(=O)N[C@H](C(=O)N[C@H](C(N)=O)C1CCCCC1)C1CCCCC1)C(C)(C)C [Compound 28] (X3-[X1][Tle][Pro(3S,4R-(CH2)3)][Chg][Chg]-NH2)")
1.1

IN: Using known records, supply Selectivity for CNC(=O)[C@@H](NC(=O)[C@@H](NC(=O)[C@@H]1CC(=O)CN1C(=O)[C@@H](NC(=O)[C@H](CC/C=C/C(=O)OC)NC(=O)c1ccncc1C(=O)O)C(C)(C)C)C1CCCCC1)C1CCCCC1 [36a/b] ({Isonicotinoyl(3-COOH)}-[X1][Tle][Pro(4-oxo)][Chg][Chg]-NHMe)
OUT: 4.1
